Experiment: Radiolabeled NAC tissue delivery by route of administration
Format: in vivo, rat
Settings: 10 min after administration of 1200 mg/kg; radiolabel remaining in the blood; n=6
RESULT TYPE: serum concentration of NAC (µg/mL)
Numeric answer only, unit µg/mL assumed.

Answer with the recorded serum concentration of NAC for the compound listed here: CC(=O)N[C@@H](CS)C(=O)O [NAC, N-acetylcysteine]
2400
